Reported pIC50 for target or system VAChT (Rattus norvegicus, UniProt Q62666), by entry.
Formally, pIC50 is defined as -log10 of the concentration c, with c in mol/L.

Answered examples (3):
Molecule: CC(C)=CCN1CCC2(C)c3cc(O)ccc3CC1C2C (single isomer, unassigned; (+)) [(+)-Pentazocine, (+)-pentazocine]
pIC50: 6.08

Molecule: Cc1ccccc1C1CCN(C2CCCCC2O)CC1 (single isomer, unassigned; (-)) [(−)-o-MeVES]
pIC50: 7.80

Molecule: COc1ccc(CCN2CCN(CCCc3ccccc3)CC2)cc1OC
pIC50: 6.92

Lookup: Need pIC50 of OC1CCCCC1N1CCC(c2ccccc2)CC1 (single isomer, unassigned; (-)) [(−)-Vesamicol, 2-(4-Phenylpiperidino)-cyclohexanol] , thanks.
Found: 7.89

From: patent US20090163461A1
